Data provenance: patent US8163909B2

Overview of reported pIC50 across a group of molecules:
# STUDY SYSTEM: CYP2D6 (Homo sapiens, UniProt P10635)
# Sequence (P10635 whole entry): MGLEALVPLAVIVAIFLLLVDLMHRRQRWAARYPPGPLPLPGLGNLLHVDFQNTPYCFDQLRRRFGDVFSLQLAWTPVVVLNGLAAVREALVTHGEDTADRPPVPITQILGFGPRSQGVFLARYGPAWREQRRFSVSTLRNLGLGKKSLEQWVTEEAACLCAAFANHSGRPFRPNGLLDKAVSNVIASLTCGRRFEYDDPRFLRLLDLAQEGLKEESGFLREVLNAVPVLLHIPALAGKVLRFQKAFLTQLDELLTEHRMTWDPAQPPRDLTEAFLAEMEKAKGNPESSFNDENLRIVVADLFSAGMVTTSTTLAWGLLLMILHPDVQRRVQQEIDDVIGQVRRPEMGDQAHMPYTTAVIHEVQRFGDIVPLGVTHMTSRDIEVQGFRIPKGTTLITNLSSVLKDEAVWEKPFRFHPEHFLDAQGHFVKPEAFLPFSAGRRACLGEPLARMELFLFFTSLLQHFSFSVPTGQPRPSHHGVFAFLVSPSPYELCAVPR
# ASSAY METHOD TEXT: CYP2D6 inhibition assay (bufuralol, pooled human liver microsomes)
# STATED CONDITIONS: 2D6 IC50, CYP enzyme inhibition
pIC50: −log10 of the molar value.

SMILES TEXT: CO[C@H](C)C(=O)N[C@@H](Cc1ccc2c(c1)OCO2)[C@H](O)CN[C@H]1CC2(CCC2)Cc2sc(CC(C)(C)C)cc21
pIC50: 5.26
//
SMILES TEXT: CO[C@@H](C)C(=O)N[C@@H](Cc1ccc2c(c1)OCO2)[C@H](O)CN[C@H]1CC2(CCC2)Cc2sc(CC(C)(C)C)cc21
pIC50: 5.51
//
SMILES TEXT: C#Cc1cc(C[C@H](NC(=O)C(OC)OC)[C@H](O)CN[C@H]2CC3(CCC3)Oc3ncc(CC(C)(C)C)cc32)ccc1F
pIC50: 5.68
//
SMILES TEXT: CC(=O)N[C@@H](Cc1cc(F)cc(F)c1)[C@H](O)CN[C@H]1CC2(CCC2)Oc2c1cc(CC(C)(C)C)nc2-n1ccnc1
pIC50: 6.00
//
SMILES TEXT: COCC(=O)N[C@@H](Cc1ccc(F)cc1)[C@H](O)CN[C@H]1CC2(CCC2)Oc2c1cc(CC(C)(C)C)nc2-n1ccnc1
pIC50: 5.74
//
SMILES TEXT: COCC(=O)N[C@@H](Cc1cc(F)cc(F)c1)[C@H](O)CN[C@H]1CC2(CCC2)Oc2c1cc(CC(C)C)cc2-n1ccnc1
pIC50: 6.05

---

# ASSAY METHOD TEXT: Microsomal stability assay, rat liver microsomes
# STATED CONDITIONS: rat liver microsomes
MEASURED QUANTITY: RLM (µL/min/mg)

SMILES TEXT: CO[C@H](C)C(=O)N[C@@H](Cc1ccc2c(c1)OCO2)[C@H](O)CN[C@H]1CC2(CCC2)Oc2nc3c(cc21)[C@H](C(C)C)CO3
OBSERVED: 126
//
SMILES TEXT: COCC(=O)N[C@@H](Cc1ccc(F)cc1)[C@H](O)CN[C@H]1CC(C)(C)Oc2c1cc(Br)c1c2OCO1
OBSERVED: 177
//
SMILES TEXT: COCC(=O)N[C@@H](Cc1ccc2c(c1)OCO2)[C@H](O)CN[C@H]1CC2(CCC2)Oc2c1cc(CC(C)C)nc2-c1ccncc1
OBSERVED: 77
//
SMILES TEXT: CC(=O)N[C@@H](Cc1cc2c(c(-c3ccncc3)c1)OCO2)[C@H](O)CN[C@H]1CC2(CCC2)Oc2ncc(CC(C)(C)C)cc21
OBSERVED: 62
//
SMILES TEXT: CO[C@H](C)C(=O)N[C@@H](Cc1ccncc1)[C@H](O)CN[C@H]1CC2(CCC2)Oc2ncc(C(F)(F)F)cc21
OBSERVED: 114
//
SMILES TEXT: CC(=O)N[C@@H](Cc1cc(F)cc(F)c1)[C@H](O)CN[C@H]1CC2(CCC2)Oc2c1cc(CC(C)(C)C)nc2Nc1ccccc1
OBSERVED: 102

---

# ASSAY METHOD TEXT: Microsomal stability assay, rat liver microsomes;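 also: rat liver microsomes (0.25 mg/mL) with about 1 µM compound plus 1 mM NADPH, pH 7.4, 37 °C for 30 min, parent left measured by LC-MS/MS against 0 min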
# STATED CONDITIONS: rat liver microsomal data

COMPOUND: CC#Cc1ccc2c(c1)[C@@H](NC[C@@H](O)[C@H](Cc1cc(F)cc(-c3nccs3)c1)NC(=O)COC)CC1(CCC1)O2 [compound 806]
RLM / µL/min/mg: 92
--
COMPOUND: COCC(=O)N[C@@H](Cc1ccc(F)cc1)[C@H](O)CN[C@H]1CC2(CCC2)Oc2c1cc(CC(C)(C)C)nc2-c1ccncc1 [compound 549]
RLM / µL/min/mg: 122
--
COMPOUND: CC(=O)N[C@@H](Cc1cc(F)cc(F)c1)[C@H](O)CN[C@H]1CC2(CCC2)Oc2c1cc(CC(C)(C)C)nc2-c1cncs1 [compound 481]
RLM / µL/min/mg: 177
--
COMPOUND: C#Cc1cccc(C[C@H](NC(=O)COC)[C@H](O)CN[C@H]2CC3(CCC3)Oc3ncc(CC(C)(C)C(F)(F)F)cc32)c1 [compound 838]
RLM / µL/min/mg: 54
--
COMPOUND: COCC(=O)N[C@@H](Cc1cccc(F)c1)[C@H](O)CN[C@H]1CC2(CCC2)Oc2c1cc(CC(C)(C)C)cc2-n1ccnc1 [compound 505]
RLM / µL/min/mg: 153
--
COMPOUND: CC[C@@H](OC)C(=O)N[C@@H](Cc1ccc(F)cc1)[C@H](O)CN[C@H]1CC2(CCC2)Oc2ncc(CC(C)(C)C)cc21 [compound 566]
RLM / µL/min/mg: 590
